Every entry's value here was drawn from the Human Domainome abundance scans (Beltran et al. 2025).

Readings of abundance fitness for the listed variants
B1: Transcription elongation factor A N-terminal and central domain-containing protein, residues 30 to 77; numbered along this chain, Q8N8B7 (parent)
chain: LTELETIYVTKEHLQETDVVRAVYRVLKNCPSVALKKKAKCLLSKWKA

- Variants of: B1
- PROTOCOL: abundance fitness (aPCA) (normalised: wild type 0, dead -1); higher = more abundant; growth selection in yeast, the domain comes from the species named
- PROTOCOL_CONDITIONS: Homo sapiens
Kindly provide the number alone.

Notebook: T2E , abundance fitness read as 0.27

Notebook: K36Q , abundance fitness read as -0.063

Notebook: V23S , abundance fitness read as -0.54
